# Tgt: F508del-CFTR in human bronchial epithelial (HBE) cells (Homo sapiens, UniProt P13569, DEL508-508)
# Construct: Non-CF and CF airway epithelia were isolated from bronchial tissue; endogenous in cells
# Sequence (P13569 with tags, fused parts or gaps DEL508-508): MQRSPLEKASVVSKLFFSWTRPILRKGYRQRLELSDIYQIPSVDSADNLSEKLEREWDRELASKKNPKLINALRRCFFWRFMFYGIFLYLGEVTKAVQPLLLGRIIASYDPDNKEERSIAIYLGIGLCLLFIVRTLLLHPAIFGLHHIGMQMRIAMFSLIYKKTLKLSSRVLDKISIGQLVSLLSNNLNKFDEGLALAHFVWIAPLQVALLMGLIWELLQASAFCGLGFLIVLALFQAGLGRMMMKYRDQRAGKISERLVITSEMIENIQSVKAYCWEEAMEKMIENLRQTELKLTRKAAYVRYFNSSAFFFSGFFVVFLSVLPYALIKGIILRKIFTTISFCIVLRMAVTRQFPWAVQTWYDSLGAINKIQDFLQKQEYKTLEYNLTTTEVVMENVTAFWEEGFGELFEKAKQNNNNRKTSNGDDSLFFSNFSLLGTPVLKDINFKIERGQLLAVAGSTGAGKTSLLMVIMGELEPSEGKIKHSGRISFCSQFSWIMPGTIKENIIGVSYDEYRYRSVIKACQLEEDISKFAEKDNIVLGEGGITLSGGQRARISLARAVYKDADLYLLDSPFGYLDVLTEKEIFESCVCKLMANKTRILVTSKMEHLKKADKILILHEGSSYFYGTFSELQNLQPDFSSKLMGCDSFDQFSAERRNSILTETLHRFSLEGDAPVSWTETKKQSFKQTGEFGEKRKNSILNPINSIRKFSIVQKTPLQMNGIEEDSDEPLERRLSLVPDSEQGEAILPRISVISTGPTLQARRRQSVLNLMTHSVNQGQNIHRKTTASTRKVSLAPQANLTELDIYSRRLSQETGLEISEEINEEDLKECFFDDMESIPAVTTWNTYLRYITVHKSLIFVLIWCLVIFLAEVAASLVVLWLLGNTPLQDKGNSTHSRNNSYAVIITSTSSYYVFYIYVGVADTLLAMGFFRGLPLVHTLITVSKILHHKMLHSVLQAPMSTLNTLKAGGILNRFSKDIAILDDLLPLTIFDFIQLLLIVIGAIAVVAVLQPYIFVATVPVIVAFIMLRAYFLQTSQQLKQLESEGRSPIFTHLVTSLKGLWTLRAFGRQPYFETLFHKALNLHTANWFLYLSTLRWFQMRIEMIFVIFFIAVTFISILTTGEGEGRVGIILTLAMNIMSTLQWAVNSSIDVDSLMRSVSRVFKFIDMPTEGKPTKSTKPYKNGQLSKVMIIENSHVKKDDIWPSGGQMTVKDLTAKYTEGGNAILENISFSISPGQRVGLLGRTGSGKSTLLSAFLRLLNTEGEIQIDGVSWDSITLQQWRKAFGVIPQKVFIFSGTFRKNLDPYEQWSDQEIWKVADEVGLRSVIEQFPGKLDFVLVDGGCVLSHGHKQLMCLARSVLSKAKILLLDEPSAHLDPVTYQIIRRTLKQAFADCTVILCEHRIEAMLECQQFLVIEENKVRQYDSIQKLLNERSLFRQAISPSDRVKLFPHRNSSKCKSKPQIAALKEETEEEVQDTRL
# Assay Info: Ussing chamber assay
# Condition Details: chloride current
Measure: EC50

Entry Cc1nn(C)cc1S(=O)(=O)NC(=O)c1ccc(-n2ccc(OCC(C)(C)C(F)(F)F)n2)nc1N1C[C@@H](C)CC1(C)C ; EC50 = < 2 µM
